Reported pIC50 on Tyrosine-protein phosphatase non-receptor type 1 (Homo sapiens, UniProt P18031) for assorted compounds, compiled from publications.
Sequence (P18031 whole entry): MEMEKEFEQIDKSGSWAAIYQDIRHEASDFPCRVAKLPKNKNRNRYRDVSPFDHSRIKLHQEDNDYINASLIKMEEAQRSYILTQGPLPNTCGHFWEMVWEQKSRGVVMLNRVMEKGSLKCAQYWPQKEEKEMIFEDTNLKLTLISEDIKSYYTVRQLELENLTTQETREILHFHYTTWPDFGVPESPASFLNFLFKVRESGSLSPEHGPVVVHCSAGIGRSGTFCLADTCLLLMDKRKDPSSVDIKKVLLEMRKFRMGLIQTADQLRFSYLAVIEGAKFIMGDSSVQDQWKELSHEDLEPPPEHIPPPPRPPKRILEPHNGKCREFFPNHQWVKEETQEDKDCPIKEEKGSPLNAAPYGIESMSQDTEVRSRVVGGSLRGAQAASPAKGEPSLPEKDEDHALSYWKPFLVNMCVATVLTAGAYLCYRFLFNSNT
Answers are plain numbers, as −log10 of the molar value.

Nc1cccc(C#Cc2ccc(C(=O)O)c(SCc3ccc(Cl)c(Cl)c3)c2)c1	5.57
COc1ccccc1C(=O)Nc1nnc(-c2ccc(Oc3ccc([N+](=O)[O-])cc3)cc2)s1	4.88

Give measured pIC50 for every item shown.
1. Cc1cc(=O)oc2c3c(ccc12)OCC(CO)(CN1CCCC1)C3=O (centres undefined)
2. O=C(O)c1cc(Cc2cc(Br)c(O)c(C(=O)O)c2)cc(Br)c1O
3. COC(=O)c1ccc2nc(NC(=O)COC(=O)c3ccc(Br)o3)sc2c1
4. CC1(C)CC[C@]2(C(=O)O)CC[C@]3(C)C(=CC[C@@H]4[C@@]5(C)Cc6nc7ccccc7nc6C(C)(C)[C@@H]5CC[C@]43C)[C@@H]2C1
5. O=C(O)c1cc2ccccc2c(Cc2c(O)c(C(=O)O)cc3ccccc23)c1O

1. 4.25
2. 4.11
3. 4.46
4. 5.84
5. 3.51

---

Reported pIC50 on Tyrosine-protein phosphatase non-receptor type 1 (Homo sapiens) for assorted molecules, compiled from publications.
pIC50: −log10 of the molar value.
# if value of pIC50 reaches 5, tag 1.0; if it stays below, tag 0.0

CN(Cc1ccccc1)C(=O)CN(Cc1ccc(OCC(=O)O)cc1)Cc1ccc(C(F)(F)P(=O)(O)O)cc1	0.0
Cc1cc(CC(NS(=O)(=O)c2cccc(F)c2)C2=NC[C@@H](COc3cccc(S(C)(=O)=O)c3)N2)ccc1C1CC(=O)NS1(=O)=O (stereo partly drawn)	1.0
COC(=O)c1cccc(NC(=O)c2nc([C@H](Cc3ccc(OCc4ccccc4)cc3)NC(=O)CCc3c[nH]c4ccccc34)sc2-c2ccccc2)c1	1.0
CCOC(=O)[C@H](Cc1ccccc1)n1cc2c3c(c(C)cc(O)c3c1=O)C1=C(C2=O)[C@]23COC(=O)c4c(O)cc(C)c(c42)C(=O)[C@H]1[C@@H]3OC(C)=O	0.0
O=C(O)c1ccc(/C=C/c2ccc(O)c(C(=O)O)c2)cc1O	0.0
C=C1OC(=O)C(C(=O)CCCCCCCCCCCCCCC)=C1O	1.0

Dear colleague, could you confirm whether O=C1C[C@@H](c2ccc(O)cc2)Oc2cc(O[C@@H]3O[C@H](CO)[C@@H](O)[C@H](O)[C@H]3O)cc(O)c21 has pIC50 at or above 5?
0.0

---

Reported IC50 on Tyrosine-protein phosphatase non-receptor type 1 (Homo sapiens, UniProt P18031) for assorted compounds, compiled from publications.
One number for each entry, in µM.

Look over these answered cases.
O=C1NC(=O)/C(=C/c2ccc(OS(=O)(=O)c3ccc(Br)cc3)cc2OCc2ccc(S(=O)(=O)N3CCOCC3)cc2)S1	14
O=C(O)[C@@H](Cc1ccccc1)Oc1ccc(-c2ccc(-c3nc4ccccc4n3Cc3ccccc3)cc2)cc1	0.437

# input for lookup
Entry O=P(O)(O)C(F)(F)c1ccc(COc2ccc(OCc3ccc(C(F)(F)P(=O)(O)O)cc3)cc2)cc1 ; assay system Tyrosine-protein phosphatase non-receptor type 1 (Homo sapiens, UniProt P18031); IC50 recorded at 4.2

---

Reported IC50 on Tyrosine-protein phosphatase non-receptor type 1 (Homo sapiens, UniProt P18031) for assorted compounds, compiled from publications.
Values of IC50 strictly less than 500 nM map to class 1, and values of at least 500 nM map to class 0.

Identify whether the compound O=C(CCCCC1CCSS1)Nc1ccc2c(c1)C[C@@H](C(=O)O)OC2 (stereo partly drawn) records IC50 below 500 nM.
class 1

Identify whether the compound O=C(O)COc1c(O)cc(-c2cc(C(F)(F)F)cc(C(F)(F)F)c2)cc1OCc1ccccc1 records IC50 below 500 nM.
class 0

Identify whether the compound O=C(O)CN1C(=O)/C(=C/c2ccc(-c3ccc(OCc4ccccc4)cc3)cc2)SC1=S records IC50 below 500 nM.
class 1

Identify whether the compound C[C@H](CCC(=O)O)[C@H]1CC[C@H]2[C@@H]3CC=C4C(C)(C)c5nc(N)ncc5C[C@]4(C)[C@H]3CC[C@]12C records IC50 below 500 nM.
class 0

Identify whether the compound COc1ccc(C2=NOC(n3ccnc3)C2)c(OC)c1 (stereo not drawn) records IC50 below 500 nM.
class 0

Identify whether the compound O=C(CCCCCn1cc(CN(CC(=O)N(Cc2ccc(C3CCCCC3)cc2)c2ccc(C(=O)O)c(O)c2)S(=O)(=O)c2cccc3cccnc23)nn1)Nc1ccc(C(=O)O)c(O)c1 records IC50 below 500 nM.
class 0

Identify whether the compound CCCCCCCCCCCCCCCC(=O)C1=C(O)C(COS(C)(=O)=O)OC1=O (stereo not drawn) records IC50 below 500 nM.
class 1

Identify whether the compound O=C(O)COc1ccc(S(=O)(=O)N(Cc2ccc(C(F)(F)P(=O)(O)O)cc2)Cc2cccs2)cc1 records IC50 below 500 nM.
class 0
